// reported log10(IC50) per item
molecular target: Cyclin-dependent kinase 5/CDK5 activator 1 (Homo sapiens, UniProt Q00535); test: Inhibitory activity against Cdk5/p25
Sequence (Q00535 whole entry): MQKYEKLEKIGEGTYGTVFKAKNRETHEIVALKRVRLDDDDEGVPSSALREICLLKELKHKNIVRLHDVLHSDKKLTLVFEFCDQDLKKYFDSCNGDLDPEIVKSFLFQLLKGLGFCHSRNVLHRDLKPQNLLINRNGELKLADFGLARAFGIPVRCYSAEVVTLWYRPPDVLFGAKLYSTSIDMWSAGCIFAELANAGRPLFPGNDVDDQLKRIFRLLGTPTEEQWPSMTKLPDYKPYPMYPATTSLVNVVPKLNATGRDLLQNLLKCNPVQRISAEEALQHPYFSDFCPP
Sequence (Q15078 whole entry, further chain): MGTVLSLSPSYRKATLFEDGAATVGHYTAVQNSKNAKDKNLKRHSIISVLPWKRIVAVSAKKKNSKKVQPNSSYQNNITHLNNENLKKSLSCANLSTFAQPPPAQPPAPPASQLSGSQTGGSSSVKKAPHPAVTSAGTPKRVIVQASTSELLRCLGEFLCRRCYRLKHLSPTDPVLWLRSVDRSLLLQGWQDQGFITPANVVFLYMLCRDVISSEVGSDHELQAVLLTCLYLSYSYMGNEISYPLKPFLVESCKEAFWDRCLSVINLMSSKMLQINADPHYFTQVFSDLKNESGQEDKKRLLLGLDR
OBSERVED PROPERTY: log10(IC50) (log10 of the value in nM)

| CHEM SMILES | EXPERIMENTAL RESULT |
| --- | --- |
| CC(=O)Nc1cc(C)c(-c2nnc3n2NC(c2ccccc2)=C(c2ccccc2)S3)s1 | 1.64 |
| O=C(CCl)Nc1cc(-c2ccccc2)c(-c2nnc3sc(-c4ccccc4)nn23)s1 | 1.45 |
| Cc1cc(NC(=O)CCl)sc1-c1nnc2n1NC(c1ccccc1)=C(c1ccccc1)S2 | 1.86 |
| Cc1cc(NC(=O)CCl)sc1-c1nnc2sc(=S)[nH]n12 | 3.87 |
| CC(=O)Nc1cc(C)c(-c2nnc3n2Nc2nc4ccccc4nc2S3)s1 | 1.53 |
| CC(=O)Nc1cc(-c2ccccc2)c(-c2nnc3n2N=C(C)CS3)s1 | 2.65 |
| CC(=O)Nc1cc(C)c(-c2nnc3n2N=C(c2cc(F)c(Cl)cc2Cl)/C(=C/c2ccc(Cl)cc2)S3)s1 | 3.53 |
| O=C(CCl)Nc1cc(-c2ccccc2)c(-c2nnc3n2N=C(c2cc(F)c(Cl)cc2Cl)/C(=C/c2ccc(Cl)cc2)S3)s1 | 3.39 |
| CC1=Nn2c(nnc2-c2sc(NC(=O)CCl)cc2-c2ccccc2)SC1 | 2.57 |
| Nn1c(S)nnc1-c1sc(NC(=O)CCl)cc1-c1ccccc1 | 1.62 |
| CC(=O)Nc1cc(-c2ccccc2)c(-c2nnc3n2Nc2nc4ccccc4nc2S3)s1 | 1.73 |
| CC(=O)Nc1cc(C)c(-c2nnc3sc(-c4cccc([N+](=O)[O-])c4)nn23)s1 | 1.81 |
| O=C(CCl)Nc1cc(-c2ccccc2)c(-c2nnc3n2NC(c2ccccc2)=C(c2ccccc2)S3)s1 | 1.79 |
| CC(=O)Nc1cc(-c2ccccc2)c(-c2nnc3n2N=C(c2cc(F)c(Cl)cc2Cl)/C(=C/c2ccccc2)S3)s1 | 3.16 |
| Cc1cc(NC(=O)CCl)sc1-c1nnc2n1Nc1nc3ccccc3nc1S2 | 1.81 |
| CC(=O)Nc1cc(-c2ccccc2)c(-c2nnc3sc(-c4ccccc4)nn23)s1 | 1.58 |
| O=C(CCl)Nc1cc(-c2ccccc2)c(-c2nnc3n2N=C(c2cc(F)c(Cl)cc2Cl)/C(=C/c2ccccc2Cl)S3)s1 | 3.39 |
| CC(=O)Nc1cc(-c2ccccc2)c(-c2nnc3n2N=C(c2cc(F)c(Cl)cc2Cl)/C(=C/c2cccc([N+](=O)[O-])c2)S3)s1 | 3.39 |
| CC(=O)Nc1cc(C)c(-c2nnc3sc(=S)[nH]n23)s1 | 3.51 |
| O=C(CCl)Nc1cc(-c2ccccc2)c(-c2nnc3n2NC(=O)CS3)s1 | 2.80 |

====

// reported IC50 per item
target: Cyclin-dependent kinase 5/CDK5 activator 1 (Homo sapiens, UniProt Q00535); assay: Inhibitory activity against Cdk5/p25

| CHEM SMILES | READOUT UNITS | IC50 |
| --- | --- | --- |
| O=C(CCl)Nc1cc(-c2ccccc2)c(-c2nnc3n2N=C(c2cc(F)c(Cl)cc2Cl)/C(=C/c2ccccc2)S3)s1 | nM | 2490 |
| CC(=O)Nc1cc(-c2ccccc2)c(-c2nnc(S)n2N)s1 | nM | 54 |
| Cc1cc(NC(=O)CCl)sc1-c1nnc2sc(-c3cccc([N+](=O)[O-])c3)nn12 | nM | 53 |
| Cc1cc(NC(=O)CCl)sc1-c1nnc2n1N=C(c1cc(F)c(Cl)cc1Cl)/C(=C/c1cccc([N+](=O)[O-])c1)S2 | nM | 3070 |
| Cc1cc(NC(=O)CCl)sc1-c1nnc2n1N=C(c1cc(F)c(Cl)cc1Cl)/C(=C/c1ccc(Cl)cc1)S2 | nM | 2970 |
| Cc1cc(NC(=O)CCl)sc1-c1nnc2n1NC(=O)CS2 | nM | 820 |
| CC(=O)Nc1cc(C)c(-c2nnc3n2N=C(c2cc(F)c(Cl)cc2Cl)/C(=C/c2ccccc2Cl)S3)s1 | nM | 3280 |
| CC(=O)Nc1cc(-c2ccccc2)c(-c2nnc3n2N=C(c2cc(F)c(Cl)cc2Cl)/C(=C/c2ccc(Cl)cc2)S3)s1 | nM | 2480 |
